# measurement.protocol: Growth inhibition of human IGROV1 cells incubated for 48 hrs by sulforhodamine B assay
# Type: functional
# condition.description: IGROV-1, 48 h
metric.name: GI50

- structure.smiles.string: "C/C(=C\\C(=O)O[C@H]1[C@@H]2[C@H](C)CC[C@H]2[C@]2(C)O[C@@]1(C(C)C)C[C@H]2NC(=O)CO)c1ccccc1"
  result: "> 100 µM"
- structure.smiles.string: "CC(C)[C@@]12C[C@@H](NC(=O)CO)[C@@](C)(O1)[C@@H]1CC[C@@H](C)[C@H]1[C@@H]2OC(=O)/C=C/C1CCCCC1"
  result: "> 44.7 µM"
- structure.smiles.string: "CC(C)[C@@]12C[C@@H](NC(=O)CO)[C@@](C)(O1)[C@@H]1CC[C@@H](C)[C@H]1[C@@H]2OC(=O)/C=C/c1ccccc1"
  result: "> 50.1 µM"
- structure.smiles.string: "CC(C)[C@@]12C[C@@H](NC(=O)CO)[C@@](C)(O1)[C@@H]1CC[C@@H](C)[C@H]1[C@@H]2OC(=O)c1ccc2ccccc2c1"
  result: "17.8 µM"
